Hello, the source for this data is PubChem BioAssay (NCI), in case you need it.

# Lookup of reported GI50 keyed by entry
- Tested on: IGROV1 ovarian
- experiment_description: NCI tumour cell line growth inhibition, 48 h

// worked examples, GI50 included
O=C1CCCCN1CCCCC#Cc1cccc(C#Cc2cccnc2)c1
14.7 µM
O=S(=O)(NCCCNc1nccc(-c2c(-c3ccc(F)cc3)nc3sccn23)n1)c1ccc2ccccc2c1
5.37 µM
COc1ccc(OC)c(Cn2cc3c(c2-c2ccccc2)CCc2cnoc2-3)c1
6.11 µM

Turning now to a further compound:
Input: Look up GI50 for this compound: O=S(=O)(CCCl)c1ccc(Cl)cc1
Output: 2.41 µM

###

- Tested on: OVCAR-3 ovarian
- experiment_description: NCI tumour cell line growth inhibition, 48 h
readout_label: TGI

// worked examples, TGI included
C[C@H]1SC(c2ccc(Cl)cc2Cl)N(NC(=O)c2ccncc2)C1=O (stereo partly specified)
> 100 µM
COC(=O)C1(C(=O)OC)CC(=O)c2cc3c(cc2-c2c(cc(OC)c(OC)c2OC)C1)OCO3
> 211 µM
CC(NC(=O)N(C)C)NC(=O)N(C)C
> 10 µM

Input: Look up TGI for this compound: S=c1cc(-c2ccc3c(c2)OCO3)s[nH]1
Output: > 100 µM

Input: Look up TGI for this compound: NC(=S)NN/C=C(\C=Nc1ccccc1)[N+](=O)[O-]
Output: > 100 µM

Input: Look up TGI for this compound: C=CC(OCC)(OCC)OCC
Output: > 100 µM
